Target: T1, human CD22 protein (recombinant CD22 extracellular domain) (human, UniProt P20273 20-687)
T1 construct: extracellular domain; also called SIGLEC-2
T1 sequence (looked up): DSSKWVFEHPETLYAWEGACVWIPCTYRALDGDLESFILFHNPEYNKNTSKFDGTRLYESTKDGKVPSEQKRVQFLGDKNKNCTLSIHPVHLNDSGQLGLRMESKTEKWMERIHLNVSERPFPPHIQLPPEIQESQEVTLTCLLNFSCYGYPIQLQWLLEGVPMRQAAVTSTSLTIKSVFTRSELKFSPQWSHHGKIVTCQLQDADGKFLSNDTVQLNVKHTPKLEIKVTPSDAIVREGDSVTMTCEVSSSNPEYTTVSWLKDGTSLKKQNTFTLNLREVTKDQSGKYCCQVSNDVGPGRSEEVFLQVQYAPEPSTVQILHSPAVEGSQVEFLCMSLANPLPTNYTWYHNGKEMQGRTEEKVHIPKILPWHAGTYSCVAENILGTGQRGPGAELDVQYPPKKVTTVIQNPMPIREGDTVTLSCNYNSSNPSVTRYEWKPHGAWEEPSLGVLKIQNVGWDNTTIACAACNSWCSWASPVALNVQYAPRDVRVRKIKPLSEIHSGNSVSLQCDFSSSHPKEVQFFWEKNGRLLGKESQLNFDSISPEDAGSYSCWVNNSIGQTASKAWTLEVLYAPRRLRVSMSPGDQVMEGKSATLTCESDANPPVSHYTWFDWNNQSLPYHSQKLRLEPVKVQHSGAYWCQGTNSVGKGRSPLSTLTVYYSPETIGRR
Assay: ELISA on recombinant CD22 extracellular domain and/or cell binding
Measurement Label: binding result

Binder: anti-CD22 heavy chain-only antibody with the VH of SEQ ID NO: 62 (antibody, V domains shown, Heavy chain-only antibody (UniAb), human IgG) VH: QLQLQESGPGLVKPSETLSLTCTVSGGSISSSSYYWGWIRQPPGKGLEWIGHIYYSGATYYNPSLKNRVTISVDTSRNQFSLNLSSVTAADTAVYYCTREDSSSWRSRGQGTLVTVSS
Recorded Result: binds
--
Binder: anti-CD22 heavy chain-only antibody with the VH of SEQ ID NO: 49 (antibody, V domains shown, Heavy chain-only antibody (UniAb), human IgG) VH: QLQLQESGPGLVKPSETLSLTCTVSGDSISSGDYYWGWIRQPPGKGLEWIGNIYYSGATYYNPSLKNRVTISVDTSKNQFSLKLSSVTAADTAVYYCTREDSSNWRSRGQGTLVTVSS
Recorded Result: binds
--
Binder: anti-CD22 heavy chain-only antibody with the VH of SEQ ID NO: 61 (antibody, V domains shown, Heavy chain-only antibody (UniAb), human IgG) VH: QLQLQESGPGLVKPSETLSLTCTVSGGSISSSSYYWGWIRQPPGKGLEWIGSIYYSGATYYNPSLKNRVTISVDTSKNQFSLKLSSVTAADTAVYYCTREDSSSWRSRGQGTLVTVSS
Recorded Result: binds

Every entry's value here was drawn from patent US11873336.
